Data provenance: patent US20240150321A1

Catalogue of compounds with associated IC50
experimental system: UniProt:Q9UDY8
Sequence (Q9UDY8 whole entry): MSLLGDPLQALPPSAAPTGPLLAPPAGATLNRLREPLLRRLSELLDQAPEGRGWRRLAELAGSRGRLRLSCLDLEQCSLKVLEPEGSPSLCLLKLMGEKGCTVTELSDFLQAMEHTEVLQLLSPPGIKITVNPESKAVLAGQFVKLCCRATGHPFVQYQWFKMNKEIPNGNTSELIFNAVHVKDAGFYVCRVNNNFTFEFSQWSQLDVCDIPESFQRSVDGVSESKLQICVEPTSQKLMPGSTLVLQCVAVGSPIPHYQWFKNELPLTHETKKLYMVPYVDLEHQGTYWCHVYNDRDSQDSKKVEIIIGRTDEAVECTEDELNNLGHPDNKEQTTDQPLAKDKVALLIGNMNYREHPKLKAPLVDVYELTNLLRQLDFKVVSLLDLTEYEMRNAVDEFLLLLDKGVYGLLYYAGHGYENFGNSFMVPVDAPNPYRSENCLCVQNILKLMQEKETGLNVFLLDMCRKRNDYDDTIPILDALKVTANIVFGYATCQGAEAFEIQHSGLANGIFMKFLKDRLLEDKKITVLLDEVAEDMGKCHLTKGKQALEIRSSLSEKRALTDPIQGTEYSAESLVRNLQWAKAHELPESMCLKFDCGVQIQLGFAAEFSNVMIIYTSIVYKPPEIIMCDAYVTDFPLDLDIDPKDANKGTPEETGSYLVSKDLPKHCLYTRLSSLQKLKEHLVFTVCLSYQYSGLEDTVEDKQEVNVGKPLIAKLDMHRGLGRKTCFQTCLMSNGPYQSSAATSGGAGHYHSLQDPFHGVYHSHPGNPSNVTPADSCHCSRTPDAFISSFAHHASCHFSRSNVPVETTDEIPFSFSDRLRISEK

Below, each entry is followed by its recorded IC50 result.
- compound: "COc1ccc2cnn(C)c2c1NS(=O)(=O)c1cnn(-c2cc(C3CCO3)ccn2)c1 (stereo not shown) [Compound I-263]"
  experimental system: "UniProt:Q9UDY8"
  measured metric: "IC50"
  value observed: "400 to 1000 nM"
- compound: "Cn1ncc2cccc(NS(=O)(=O)c3cnn(-c4cc(N5CCCC5=O)ccn4)c3)c21 [Compound I-284]"
  experimental system: "UniProt:Q9UDY8"
  measured metric: "IC50"
  value observed: "> 2500 nM"
- compound: "COc1ccc2cnn(C)c2c1NS(=O)(=O)c1cnn(-c2cc(C(C)(F)F)ccn2)c1 [Compound I-91]"
  experimental system: "UniProt:Q9UDY8"
  measured metric: "IC50"
  value observed: "≤ 400 nM"
- compound: "CCc1ccc2cnn(C)c2c1NS(=O)(=O)c1cnn(-c2ccnc(N(C)C)c2)c1 [Compound I-41]"
  experimental system: "UniProt:Q9UDY8"
  measured metric: "IC50"
  value observed: "≤ 400 nM"
- compound: "COc1ccc2cnn(C)c2c1NS(=O)(=O)c1cnn(-c2cc(C3(C#N)CCC3)ccn2)c1 [Compound I-457]"
  experimental system: "UniProt:Q9UDY8"
  measured metric: "IC50"
  value observed: "400 to 1000 nM"

IC50 of Cn1ncc2cccc(NS(=O)(=O)c3cnn(-c4cc(C5(O)CCC5)ccn4)c3)c21 [Compound I-107] on UniProt:Q9UDY8? > 2500 nM
